Here the recorded abundance fitness is given for each entry.
B1: Gamma-crystallin C, residues 4 to 79; numbered along this chain, P07315 (parent)
chain: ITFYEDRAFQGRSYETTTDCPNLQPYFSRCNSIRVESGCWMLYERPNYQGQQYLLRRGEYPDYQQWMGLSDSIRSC

- Variants of: B1
- assay_overview: abundance fitness (aPCA) (normalised: wild type 0, dead -1); higher = more abundant; growth selection in yeast, the domain comes from the species named
- test_context: Homo sapiens
Lab note: jot down the number only; don't add units.

R56F = 0.195
R34H = -0.163
M41S = 0.068
F27K = -0.658
C30Q = -0.713

Req: Fill blank: measured abundance fitness of the variant Y43P is ____.
Resp: -1.03

Req: Fill blank: measured abundance fitness of the variant F27D is ____.
Resp: -1.02

Req: Fill blank: measured abundance fitness of the variant L55T is ____.
Resp: -0.318

Req: Fill blank: measured abundance fitness of the variant Q49P is ____.
Resp: -0.805

Req: Fill blank: measured abundance fitness of the variant R29D is ____.
Resp: -0.239

These entries and their values trace back to the Human Domainome abundance scans (Beltran et al. 2025).
